System: human prostatic adenocarcinoma cell line PC3
Experiment: Cell viability studies, PC3
Format: cell-based
Conditions: PC-3, PC3 cells, FIG. 9D, read-out: doxorubicin concentration causing 50% reduction in the viability of PC3 cells
Endpoint Label: IC50 (µM)
State the answer as a number, implicitly in µM.

Form field: IC50 recorded for COc1cccc2c1C(=O)c1c(O)c3c(c(O)c1C2=O)C[C@@](O)(C(=O)CO)C[C@@H]3O[C@H]1C[C@H](N)[C@H](O)[C@H](C)O1 [doxorubicin] with human prostatic adenocarcinoma cell line PC3 (enter value)
8
